Test system: Lymphosarcoma Mecca ip in C3AKF1 mice, survival T/C%
Experiment: NCI In Vivo Anticancer Drug Screen. Data for tumor model Lymphosarcoma Mecca (intraperitoneal) in C3AKF1 (CHKRF1) mice
Conditions: endpoint: survival time, mean or median; dose: 25.0 mg/kg/injection; schedule: Q01DX010 (ip); vehicle: saline; higher = longer survival
Toxic doses and inconclusive results are not listed.
VALUE_KIND: T/C

Examples with their reported T/C follow.
Q: Which T/C reading was recorded for the compound Cc1cc2nc3c(=O)[nH]c(=O)nc-3n(CC(O)C(O)C(O)C(O)CO)c2cc1C (centres undefined) ?
A: 95 % of control

Q: What measured T/C goes with `CS(=O)(=O)OCCCCOS(C)(=O)=O` ?
A: 90 % of control

Q: T/C for CS(=O)(=O)OCC(O)C(O)C(O)C(O)COS(C)(=O)=O (centres undefined) ?
A: 111 % of control

Q: If you can, please state the reported T/C value of N=[N+]=CC(=O)OCC(N)C(=O)O (centres undefined) .
A: 105 % of control

Q: Please report the recorded T/C for `O=[n+]1c2c(n([O-])c3ccccc31)-c1cccc3cccc-2c13` .
A: 90 % of control

Q: Which T/C value belongs to `NC(=O)n1cccn1` ?
A: 90 % of control

Q: For the compound OC(CBr)C(O)C(O)C(O)CBr (centres undefined) , what T/C is on record?
A: 100 % of control

Q: What measured T/C goes with `CSc1ncnc2nc[nH]c12` ?
A: 109 % of control

Could you now look at the following compound, please?
Q: Name the reported T/C value associated with the compound COC1C(OC(=O)/C=C/C=C/C=C/C=C/C(=O)O)CCC2(CO2)C1C1(C)OC1CC=C(C)C (centres undefined)
A: 100 % of control
